kon overview
Target: T1, Full length murine HtrA1 (MuHtrA1) (P24-P480), N-terminal His6 tag (murine, UniProt Q9R118 24-480)
T1 construct: Expressed in insect cells
T1 sequence (Q9R118 other isoform, or with tags, fused parts or gaps): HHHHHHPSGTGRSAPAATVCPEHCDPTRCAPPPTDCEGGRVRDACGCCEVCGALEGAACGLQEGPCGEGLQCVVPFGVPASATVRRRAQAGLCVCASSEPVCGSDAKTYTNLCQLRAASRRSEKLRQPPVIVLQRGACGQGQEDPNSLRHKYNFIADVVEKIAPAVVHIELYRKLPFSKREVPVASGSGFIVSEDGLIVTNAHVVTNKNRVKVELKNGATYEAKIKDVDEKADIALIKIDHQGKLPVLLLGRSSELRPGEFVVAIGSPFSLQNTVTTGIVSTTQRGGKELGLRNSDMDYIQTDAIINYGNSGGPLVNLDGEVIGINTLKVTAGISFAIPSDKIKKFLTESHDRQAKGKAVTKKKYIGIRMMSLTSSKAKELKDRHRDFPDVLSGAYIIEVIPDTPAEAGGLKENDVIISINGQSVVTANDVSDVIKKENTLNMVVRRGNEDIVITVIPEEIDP
Test: SPR (BIAcore T100), single-cycle kinetics, biotinylated murine HtrA1 captured on streptavidin, Fab in solution
Write the numeric value and append its unit.

See these solved cases before continuing.
Qu. Answer with the recorded kon of YW505.94a Fab (Fab, V domains shown, Tested as Fab) VH: EVQLVESGGGLVQPGGSLRLSCAASGFSISGYYIHWVRQAPGKGLEWVGWIDPYGGDTNYADSVKGRFTISADTSKNTAYLQMNSLRAEDTAVYYCARGTFLTSWGHYFDYWGQGT VL: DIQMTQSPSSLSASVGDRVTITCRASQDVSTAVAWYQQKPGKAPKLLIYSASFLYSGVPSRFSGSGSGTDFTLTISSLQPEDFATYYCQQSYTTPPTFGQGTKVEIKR only.
Ans. 1.48e+06 M⁻¹ s⁻¹

Qu. Answer with the recorded kon of YW505.94a.54 Fab (Fab, V domains shown) VH: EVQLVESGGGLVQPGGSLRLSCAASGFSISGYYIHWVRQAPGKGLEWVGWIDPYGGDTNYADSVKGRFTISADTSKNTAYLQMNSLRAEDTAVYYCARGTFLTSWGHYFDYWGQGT VL: DIQMTQSPSSLSASVGDRVTITCRASQVVGNYLAWYQQKPGKAPKLLIYSASFLYSGVPSRFSGSGSGTDFTLTISSLQPEDFATYYCQQSDDHPPTFGQGTKVEIKR only.
Ans. 2.82e+06 M⁻¹ s⁻¹

Qu. Answer with the recorded kon of YW505.94a.28 Fab (Fab, V domains shown) VH: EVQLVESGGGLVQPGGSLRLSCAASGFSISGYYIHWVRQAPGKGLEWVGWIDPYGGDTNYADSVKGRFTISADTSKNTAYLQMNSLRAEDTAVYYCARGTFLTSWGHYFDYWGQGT VL: DIQMTQSPSSLSASVGDRVTITCRASQSINTYLAWYQQKPGKAPKLLIYSASFLYSGVPSRFSGSGSGTDFTLTISSLQPEDFATYYCQQSDDTPPTFGQGTKVEIKR only.
Ans. 2.02e+06 M⁻¹ s⁻¹

---
Qu. Answer with the recorded kon of Fab94 (anti-HtrA1 antibody YW505.94, Fab format) (Fab, V domains shown) VH: EVQLVESGGGLVQPGGSLRLSCAASGFNISGYYIHWVRQAPGKGLEWVGWIDPYGGDTNYADSVKGRFTISADTSKNTAYLQMNSLRAEDTAVYYCARGTFLTSWGHYFDYWGQGT VL: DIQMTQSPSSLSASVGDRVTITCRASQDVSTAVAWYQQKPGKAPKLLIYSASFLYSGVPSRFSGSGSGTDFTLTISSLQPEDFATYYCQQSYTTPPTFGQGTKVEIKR only.
Ans. 447000 M⁻¹ s⁻¹
